Test system: MS2 coat protein
Measurement description: apparent KD of MS2 coat protein; designed switch direction (-1 OFF switch, 1 ON switch): 1; higher = weaker reporter binding
Test conditions: input ligand: microRNA oligo, concentration not stated
Outcome: YES for apparent KD of MS2 coat protein of at least 100 nM; NO for anything lower.

* GCCAACUCAUGAGGAUAUGGCACCUUAUUGGUGCCAGAAGGCAUGUCUAUUGACAUGAGGAUCACCCAUGUAUUAUUGUUGGCA [Fiskers NG1ss - 24] (Eterna round: R96, puzzle: Same State NG 1) | YES
* GUUACAUGAGGAUCACCCAUGUAUGUGUGGGAGUAAGUGUCUUAGGAUAUCUAUUAUUUAAUUUUAGAGAAGGAAGAUUGUUGU [JMF's solution 27] (Eterna round: R96, puzzle: Same State NG 3) | YES
* UGUUGUUAAUUAGGAUAUGGUCACAUGAGGAUCACCCAUGUAAUGUCGAUGCUAUGUGGAUUUGAUCAGAAGGAAUGGCUAACA [SameState NG2 #97] (Eterna round: R96, puzzle: Same State NG 2) | YES
* GCUCGACGUGUUGUCUACAUGAGGAUCACCCAUGUAGGUGCGGAGGAUAUCUACGUGUUUUAUGUAGAGAAGGUCGUGUCGAGC [SameState NG3 #88] (Eterna round: R96, puzzle: Same State NG 3) | NO
* GGAAUAUUUACAGGAUAUGAUUUGUAAAUUCGAUCAGAAGGGUAGAUGUCUUACACGACUUGUUACAUGAGGAUCACCCAUGUU [SameState NG1 #9] (Eterna round: R96, puzzle: Same State NG 1) | NO
* GGUCGGACUCACAUGAGGAUCACCCAUGUUGGCGAAAGCCGGCAGGAUAUCUGUCCGAAAAGGUCAGAGAAGGGCUAACCGACC [Fiskers NG3ss - 60] (Eterna round: R96, puzzle: Same State NG 3) | YES
* AGAGGAGGAGCAGGAUAUGCGAAGAAGAAAGAGGUAGAAGGGCUCAUGGGAUGACAUGAGGAUCACCCAUGUACCGCCCGAGGA [AK SSNG1-V2-8.1] (Eterna round: R96, puzzle: Same State NG 1) | NO
* GCUACAUGAGGAUCACCCAUGUGUGCGUGGGAGUGAGUGGCUUAGGAUAUCUAUGAUUUUAGUUGAGAGAAGGAGGAUUGCUGU [SS-NG3-LRO10] (Eterna round: R96, puzzle: Same State NG 3) | YES
* GUUACAUGAGGAUCACCCAUGUAUGUGUGGGAGUAAGUGUCUUAGGAUAUCUGUUAUUUAAGUUAAGAGAAGGAAGAUUGUUGU [JMF's solution 42] (Eterna round: R96, puzzle: Same State NG 3) | NO
* CGUCCCUCCACAGGAUAUCGACCAUUAAAACGGCGAGAAGGGUGGCCACAUGAGGAUCACCCAUGUGGAAUUGGACAAGCUACC [Veonso] (Eterna round: R96, puzzle: Same State NG 1) | NO
* UGGCUCAGACGAGGAUAUAUGUGAUCACAUGAGGAUCACCCAUGUCUCGAGCUUCGGCUCGAGACAUAGAAGGCGUCUGAGCCU [SSNG2/3-A3] (Eterna round: R96, puzzle: Same State NG 2) | NO
* GGUAGGUUACUACCAAACAUGAGGAUCACCCAUGUAAAUGGGAAGGAUAUGGUACCUAUUUGGUACCAGAAGGUCCAAAUAAUU [Mat - Same State NG 3 - JL Mod - D95] (Eterna round: R96, puzzle: Same State NG 3) | YES
* GGCCUGGGUCAAGGAUAUGCUACCGUUUCGGUAGCAGAAGGUGAUCACAUGAGGAUCACCCAUGUUUACGCGAAGACGCGCGCC (Eterna round: R96, puzzle: Same State NG 1) | NO
* GUAAUAAUGUAAGGAUAUACAUGAGGAUUUCUCGUAGAAGGUACAAGACAUGAGGAUCACCCAUGUGUCGCUCCGUAGAGCGUA [Mat - Same State NG 1 - JL mod - D15] (Eterna round: R96, puzzle: Same State NG 1) | YES
* UAGGGACAUGAGGAUCACCCAUGUGCCUCAUAUGGAGAAACUCAGGAUAUGCUGAGGAUCACCCGGCAGAAGGGAGAUUUGAGG (Eterna round: R96, puzzle: Same State NG 3) | NO
* ACAUGAGAGAAAGGAUAUGUUGUACCUACAUGUGACAUGAGGAUCACCCAUGUGGUAAGUAUGAGACAGAAGGUUCAGAUAUGU [Equivalence 32 - Jieux - Same State NG 2] (Eterna round: R96, puzzle: Same State NG 2) | NO
* UUAUUAUUUACAUGAGGAUCACCCAUGUUUUUAUGUCAGAGAUAGGAUAUAGUUUUCUCGUUUUUCUAGAAGGAUCUUUUUAUU [JR_SSNG3_Sub085] (Eterna round: R96, puzzle: Same State NG 3) | NO
* UAUGAAUUACAAGGAUAUUAAUAACAUGAGGAUCACCCAUGUGGCUGUGAGAGUUAGAUAAGCUAUAAGAAGGUGUGUGUGUUU [JR_SSNG2_Sub093] (Eterna round: R96, puzzle: Same State NG 2) | YES

// data source = the supplement of paper PMC9170038
